test system: wheat; assay: Test B pre/postemergence wheat; type: in vivo, Triticum aestivum; details: Preemergence, Rate 500 g/ha; scale of 0 to 10 where 0 is no effect and 10 is complete control
Observable: Wheat plant response rating

Returns the measured Wheat plant response rating for the input compound. Input: CC(C)N(C(=O)n1oc(=O)n(C2CC3CCC2C3)c1=O)c1ccc(F)cc1F (stereo not drawn)
2

Returns the measured Wheat plant response rating for the input compound. Input: "CC(C)N(C(=O)n1oc(=O)n(CCCN(C)C)c1=O)c1ccc(F)cc1"
0

Returns the measured Wheat plant response rating for the input compound. Input: "CC(C)N(C(=O)n1oc(=O)n(C2CCC2)c1=O)c1ccccc1"
0

Returns the measured Wheat plant response rating for the input compound. Input: CC(=O)C(C)n1c(=O)on(C(=O)N(c2ccccc2)C(C)C)c1=O (stereo not drawn)
8

Returns the measured Wheat plant response rating for the input compound. Input: CC(C)C(C)n1c(=O)on(C(=O)N(c2ccc(F)cc2F)C(C)C)c1=O (stereo not drawn)
6

Returns the measured Wheat plant response rating for the input compound. Input: "CCOCn1c(=O)on(C(=O)N(c2ccccc2)C(C)C)c1=O"
10

Where these numbers come from: patent US6737383B1
